# measurement-description: Mouse liver microsomal stability
# Format: in vitro ADME
# measurement-context: stability in pooled mouse (CD-1, male) liver microsomes 0.5 mg/ml, compound 1 μM, parent compound by LC/MS, in % (unit assumed)
recorded-metric: MLM (30 min)
Answer using only a numeral; do not append any unit.

{"molecule": "C#Cc1cccc(Nc2ncnc3cc(OCCOC(F)F)c(OCCOC(F)F)cc23)c1 [2(b)]", "recorded-measurement": 94.3}

# MLM (30 min) lookup, item COc1cc2ncnc(Nc3cccc(Cl)c3F)c2cc1OCCOC(F)F [2(i)] 1.5

# MLM (30 min) lookup, item Fc1ccc(Nc2ncnc3cc(OCCOC(F)F)c(OCCOC(F)F)cc23)cc1Cl [2(c)] 94.6

# MLM (30 min) lookup, item Fc1ccc(Nc2ncnc3cc(OCCOC(F)F)c(OCCOC(F)F)cc23)c(F)c1Cl [2(d)] 90.4

# MLM (30 min) lookup, item Fc1cc(Cl)ccc1Nc1ncnc2cc(OCCOC(F)F)c(OCCOC(F)F)cc12 [2(e)] 67.8

----------
# measurement-description: Mouse liver microsomal stability
# Type: in vitro ADME
# measurement-context: stability in pooled mouse (CD-1, male) liver microsomes 0.5 mg/ml, compound 1 μM, parent compound by LC/MS, in % (unit assumed)
MLM (30 min) by entry:
Answer using only a numeral; do not append any unit.

{"molecule": "Fc1cccc(F)c1Nc1ncnc2cc(OCCOC(F)F)c(OCCOC(F)F)cc12", "recorded-metric": "MLM (30 min)", "recorded-measurement": 43.7}
{"molecule": "FC(F)OCCOc1cc2ncnc(Nc3ccc(C(F)(F)F)cc3)c2cc1OCCOC(F)F", "recorded-metric": "MLM (30 min)", "recorded-measurement": 106.2}
{"molecule": "C#Cc1cccc(Nc2ncnc3cc(OCCOC)c(OCCOC)cc23)c1 [Erlotinib, reference compound]", "recorded-metric": "MLM (30 min)", "recorded-measurement": 56.3}

# MLM (30 min) lookup, item COc1cc2ncnc(Nc3ccc(F)c(Cl)c3F)c2cc1OCCOC(F)F 0.7

----------
Kp at 4 h by entry:
# measurement-description: Brain and plasma concentrations after oral gavage in rat, sampling to 4 hours (Table 4)
# Assay type: in vivo
# measurement-context: male, Sprague-Dawley (SD), brain/plasma, po, 50 mg/kg, Table 4 (4 hours), read-out: AUCLast Ratio (Brain/Plasma)
Structures can show the parent of a compound that is named as a salt.
Answer using only a numeral; do not append any unit.

{"compound": "Fc1c(Nc2ncnc3cc(OCCOC(F)F)c(OCCOC(F)F)cc23)ccc(Cl)c1Cl [Compound 2A•HCl]", "Kp at 4 h": 1.69}

# Kp at 4 h lookup, item Fc1ccc(Nc2ncnc3cc(OCCOC(F)F)c(OCCOC(F)F)cc23)c(F)c1Cl [Compound 2D•HCl] 2.05

----------
# target-under-test: P-gp (Homo sapiens)
# Construct: host or cells: Caco-2 (C2BBe1)
# measurement-description: Evaluation of P-gp efflux in Caco-2 cell monolayers
# Format: in vitro ADME
# measurement-context: pH 7.4, Caco-2, Verapamil 0 μM
Where a name gives a salt, the structure may show the parent alone.
recorded-metric: efflux ratio at 120 min, 5 µM
Answer using only a numeral; do not append any unit.

{"compound": "CC(C)NCC(O)COc1cccc2ccccc12 (stereo not drawn) [Propranolol]", "recorded-measurement": 0.65}
{"compound": "Fc1ccc(Nc2ncnc3cc(OCCOC(F)F)c(OCCOC(F)F)cc23)c(F)c1Cl [Compound 2D•HCl]", "recorded-measurement": 0.58}

Continue with the next compound.
# efflux ratio at 120 min, 5 µM lookup, item Fc1c(Nc2ncnc3cc(OCCOC(F)F)c(OCCOC(F)F)cc23)ccc(Cl)c1Cl [Compound 2A•HCl] 0.59

----------
Kp at 4 h by entry:
# measurement-description: Brain and plasma concentrations after oral gavage in rat, sampling to 4 hours (Table 4)
# Type: in vivo
# measurement-context: male, Sprague-Dawley (SD), brain/plasma, po, 50 mg/kg, Table 4 (4 hours), read-out: Cmax Ratio (Brain/Plasma)
Structures can show the parent of a compound that is named as a salt.
Answer using only a numeral; do not append any unit.

# Kp at 4 h lookup, item Fc1ccc(Nc2ncnc3cc(OCCOC(F)F)c(OCCOC(F)F)cc23)c(F)c1Cl [Compound 2D•HCl] 2.01

# Kp at 4 h lookup, item Fc1c(Nc2ncnc3cc(OCCOC(F)F)c(OCCOC(F)F)cc23)ccc(Cl)c1Cl [Compound 2A•HCl] 1.81

----------
# target-under-test: P-gp (Homo sapiens, UniProt P08183)
# Construct: host or cells: Caco-2 (C2BBe1)
# Sequence (P08183 whole entry): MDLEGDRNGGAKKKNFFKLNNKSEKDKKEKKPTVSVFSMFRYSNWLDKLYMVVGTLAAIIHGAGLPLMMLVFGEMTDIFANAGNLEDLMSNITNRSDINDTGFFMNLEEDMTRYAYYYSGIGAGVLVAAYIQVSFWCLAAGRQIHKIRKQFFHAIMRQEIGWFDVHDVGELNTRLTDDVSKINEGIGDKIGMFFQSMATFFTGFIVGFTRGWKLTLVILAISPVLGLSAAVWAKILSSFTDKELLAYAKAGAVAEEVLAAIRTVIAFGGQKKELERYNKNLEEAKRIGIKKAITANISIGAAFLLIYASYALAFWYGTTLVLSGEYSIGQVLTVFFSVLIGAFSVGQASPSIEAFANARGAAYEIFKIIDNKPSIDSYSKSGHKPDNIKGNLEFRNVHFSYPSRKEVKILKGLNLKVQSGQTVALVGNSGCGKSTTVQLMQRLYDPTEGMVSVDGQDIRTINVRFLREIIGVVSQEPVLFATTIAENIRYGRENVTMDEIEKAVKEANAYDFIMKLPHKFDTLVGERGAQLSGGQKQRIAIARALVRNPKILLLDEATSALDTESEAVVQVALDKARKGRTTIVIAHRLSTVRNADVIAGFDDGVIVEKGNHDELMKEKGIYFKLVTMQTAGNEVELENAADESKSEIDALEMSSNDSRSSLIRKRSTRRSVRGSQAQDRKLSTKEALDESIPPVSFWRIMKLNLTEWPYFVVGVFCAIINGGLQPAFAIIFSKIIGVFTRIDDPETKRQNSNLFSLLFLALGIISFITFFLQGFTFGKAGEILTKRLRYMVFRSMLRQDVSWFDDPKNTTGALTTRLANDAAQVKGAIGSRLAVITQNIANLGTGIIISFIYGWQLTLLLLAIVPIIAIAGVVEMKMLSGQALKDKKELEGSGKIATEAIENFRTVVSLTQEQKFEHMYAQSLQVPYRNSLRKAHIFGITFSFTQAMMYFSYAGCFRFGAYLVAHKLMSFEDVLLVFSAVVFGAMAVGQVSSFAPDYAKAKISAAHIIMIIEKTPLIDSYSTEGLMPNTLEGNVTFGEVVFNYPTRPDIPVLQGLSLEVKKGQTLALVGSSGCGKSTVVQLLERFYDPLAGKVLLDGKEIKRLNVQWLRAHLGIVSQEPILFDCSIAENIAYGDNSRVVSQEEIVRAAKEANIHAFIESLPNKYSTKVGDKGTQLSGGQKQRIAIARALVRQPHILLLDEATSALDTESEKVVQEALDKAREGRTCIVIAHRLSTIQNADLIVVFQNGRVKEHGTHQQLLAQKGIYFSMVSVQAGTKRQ
# measurement-description: Evaluation of P-gp efflux in Caco-2 cell monolayers
# Assay type: in vitro ADME
# measurement-context: Caco-2, pH 7.4, with none (verapamil 0 μM), Caco-2, Verapamil 0 μM, read-out: Recovery (%) AP-BL
Structures can show the parent of a compound that is named as a salt.
recovery at 120 min, 5 μM by entry:
Just the number please, in %, no unit attached.

{"molecule": "CC(C)NCC(O)COc1cccc2ccccc12 (centres unmarked)", "target-under-test": "P-gp (Homo sapiens, UniProt P08183)", "recovery at 120 min, 5 μM (%)": 69.8}
{"molecule": "Fc1ccc(Nc2ncnc3cc(OCCOC(F)F)c(OCCOC(F)F)cc23)c(F)c1Cl [Compound 2D•HCl]", "target-under-test": "P-gp (Homo sapiens, UniProt P08183)", "recovery at 120 min, 5 μM (%)": 21.8}
{"molecule": "C#Cc1cccc(Nc2ncnc3cc(OCCOC)c(OCCOC)cc23)c1 [Erlotinib•HCl]", "target-under-test": "P-gp (Homo sapiens, UniProt P08183)", "recovery at 120 min, 5 μM (%)": 55.5}

Observed recovery at 120 min, 5 μM on P-gp (Homo sapiens, UniProt P08183) for C[C@H]1O[C@@H](O[C@H]2[C@@H](O)C[C@H](O[C@H]3[C@@H](O)C[C@H](O[C@H]4CC[C@@]5(C)[C@H](CC[C@@H]6[C@@H]5C[C@@H](O)[C@]5(C)[C@@H](C7=CC(=O)OC7)CC[C@]65O)C4)O[C@@H]3C)O[C@@H]2C)C[C@H](O)[C@@H]1O , please. 76.9

Observed recovery at 120 min, 5 μM on P-gp (Homo sapiens, UniProt P08183) for Fc1c(Nc2ncnc3cc(OCCOC(F)F)c(OCCOC(F)F)cc23)ccc(Cl)c1Cl [Compound 2A•HCl] , please. 43.4

----------
recovery at 120 min, 5 μM by entry:
# target-under-test: P-gp (Homo sapiens, UniProt P08183)
# Construct: host or cells: Caco-2 (C2BBe1)
# measurement-description: Evaluation of P-gp efflux in Caco-2 cell monolayers
# Type: in vitro ADME
# measurement-context: Caco-2, pH 7.4, with verapamil 100 μM, Caco-2, Verapamil 100 μM, read-out: Recovery (%) BL-AP
Structures can show the parent of a compound that is named as a salt.
Just the number please, in %, no unit attached.

Consider the worked cases shown below.
{"compound": "C#Cc1cccc(Nc2ncnc3cc(OCCOC)c(OCCOC)cc23)c1 [Erlotinib•HCl]", "unit-tag": "%", "recovery at 120 min, 5 μM": 58}
{"compound": "Fc1ccc(Nc2ncnc3cc(OCCOC(F)F)c(OCCOC(F)F)cc23)c(F)c1Cl [Compound 2D•HCl]", "unit-tag": "%", "recovery at 120 min, 5 μM": 28.9}
{"compound": "Fc1c(Nc2ncnc3cc(OCCOC(F)F)c(OCCOC(F)F)cc23)ccc(Cl)c1Cl [Compound 2A•HCl]", "unit-tag": "%", "recovery at 120 min, 5 μM": 83.2}

# recovery at 120 min, 5 μM lookup, item C[C@H]1O[C@@H](O[C@H]2[C@@H](O)C[C@H](O[C@H]3[C@@H](O)C[C@H](O[C@H]4CC[C@@]5(C)[C@H](CC[C@@H]6[C@@H]5C[C@@H](O)[C@]5(C)[C@@H](C7=CC(=O)OC7)CC[C@]65O)C4)O[C@@H]3C)O[C@@H]2C)C[C@H](O)[C@@H]1O 99.7

----------
# target-under-test: P-gp (Homo sapiens, UniProt P08183)
# Construct: host or cells: Caco-2 (C2BBe1)
# measurement-description: Evaluation of P-gp efflux in Caco-2 cell monolayers;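 further: Caco-2 monolayers dosed apically or basolaterally with test compound at 5 µM in HBSS with HEPES and glucose, 37 °C, donor and receiver sampled after 120 min, LC/MS peak areas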
# Format: in vitro ADME
# measurement-context: Caco-2, pH 7.4, with verapamil 100 μM, Caco-2, Verapamil 100 μM, read-out: Recovery (%) AP-BL
Where a name gives a salt, the structure may show the parent alone.
recovery at 120 min, 5 μM by entry:
Just the number please, in %, no unit attached.

Consider the worked cases shown below.
{"compound": "C[C@H]1O[C@@H](O[C@H]2[C@@H](O)C[C@H](O[C@H]3[C@@H](O)C[C@H](O[C@H]4CC[C@@]5(C)[C@H](CC[C@@H]6[C@@H]5C[C@@H](O)[C@]5(C)[C@@H](C7=CC(=O)OC7)CC[C@]65O)C4)O[C@@H]3C)O[C@@H]2C)C[C@H](O)[C@@H]1O [Digoxin]", "unit-tag": "%", "recorded-measurement": 90.3}
{"compound": "C#Cc1cccc(Nc2ncnc3cc(OCCOC)c(OCCOC)cc23)c1 [Erlotinib•HCl]", "unit-tag": "%", "recorded-measurement": 76.8}
{"compound": "Fc1c(Nc2ncnc3cc(OCCOC(F)F)c(OCCOC(F)F)cc23)ccc(Cl)c1Cl [Compound 2A•HCl]", "unit-tag": "%", "recorded-measurement": 55.5}

Continue with the next compound.
# recovery at 120 min, 5 μM lookup, item Fc1ccc(Nc2ncnc3cc(OCCOC(F)F)c(OCCOC(F)F)cc23)c(F)c1Cl [Compound 2D•HCl] 29.7
